Target: T1, HLA-A*0201 molecule expressed on human tumor cell line T2 (human)
T1 construct: surface HLA-A2 read with anti-HLA-A2 antibody BB7.2-PE by FACS; also called HLA-A2
Assay: T2 cell HLA-A2 stabilisation, FACS; ratio of 20% concentration to that of HIV pol 589-597 (lower = stronger)
Returns true if the recorded In vitro binding affinity (relative affinity) is greater than or equal to 5, and false otherwise.

FMPFGFILGV [IL13RA2-B3] | false
FMPFGFILPI [IL13RA2-B6] | true
ALPFGFILV (also called comparative peptide of Eguchi et al. 2006) [1A9V] | true
YMPFGFILV [IL13RA2-B4] | true
YLPFGFILV [IL13RA2-B5] | false

Prompt: Does the reported In vitro binding affinity (relative affinity) for FLPFGFILPV (also called IL13R2A-L) [IL13RA2-L] fall at or above the 5 mark?
Completion: false

Prompt: Can WLPFGFILI [IL13RA2-H] be said to have In vitro binding affinity (relative affinity) at or above 5?
Completion: true

Prompt: Could you tell me if the measured In vitro binding affinity (relative affinity) of FMPFGFILV [IL13RA2-B2 (SEQ ID NO: 64, Example 13)] reaches 5 or more?
Completion: true

Prompt: Decide: is the reported value of In vitro binding affinity (relative affinity) for FLPFGFILV (also called candidate peptide) [IL13RA2-B] equal to or greater than 5?
Completion: false
